Biological target: UniProt Q9HBA0
Sequence (Q9HBA0 whole entry, species assumed): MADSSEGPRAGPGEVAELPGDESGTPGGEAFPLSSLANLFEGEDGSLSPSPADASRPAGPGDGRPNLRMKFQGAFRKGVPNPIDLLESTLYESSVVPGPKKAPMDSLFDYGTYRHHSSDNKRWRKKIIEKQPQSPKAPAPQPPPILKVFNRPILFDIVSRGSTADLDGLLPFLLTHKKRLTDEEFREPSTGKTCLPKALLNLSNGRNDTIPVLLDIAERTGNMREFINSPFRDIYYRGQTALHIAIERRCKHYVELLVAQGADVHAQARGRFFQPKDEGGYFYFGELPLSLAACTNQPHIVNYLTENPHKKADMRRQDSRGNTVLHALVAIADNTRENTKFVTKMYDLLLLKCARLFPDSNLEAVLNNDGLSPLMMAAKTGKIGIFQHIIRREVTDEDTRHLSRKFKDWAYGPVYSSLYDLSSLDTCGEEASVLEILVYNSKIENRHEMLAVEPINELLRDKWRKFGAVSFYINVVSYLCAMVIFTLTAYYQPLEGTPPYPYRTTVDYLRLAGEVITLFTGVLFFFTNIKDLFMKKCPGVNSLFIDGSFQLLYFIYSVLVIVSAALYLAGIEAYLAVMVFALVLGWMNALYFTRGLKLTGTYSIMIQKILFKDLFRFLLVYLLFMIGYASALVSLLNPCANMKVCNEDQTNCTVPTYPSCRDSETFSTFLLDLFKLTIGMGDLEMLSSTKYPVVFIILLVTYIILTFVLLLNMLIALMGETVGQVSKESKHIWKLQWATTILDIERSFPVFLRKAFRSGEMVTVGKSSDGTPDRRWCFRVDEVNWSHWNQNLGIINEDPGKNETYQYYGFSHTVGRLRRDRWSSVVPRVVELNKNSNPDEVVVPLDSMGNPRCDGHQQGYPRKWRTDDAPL
Assay: FLIPR calcium entry in TRPV4-expressing cells stimulated by 4α-phorbol-didecanoate
Settings: fluo-4-loaded cells, 4α-phorbol-didecanoate (5 µM), FLIPR Tetra; read-out: IC50 to block TRPV4
assayReadout: pIC50
# pIC50 is unitless: minus log10 of the molar concentration; print number only

The measured pIC50 that NCCCCCCNS(=O)(=O)c1cccc2c(Cl)cccc12 [W-7] showed for UniProt Q9HBA0 is 4.19

###

Give pIC50 for every item shown.
Biological target: TRPC6 (Homo sapiens)
Construct: expressed in transfected cells
Sequence (Q9Y210 1-931): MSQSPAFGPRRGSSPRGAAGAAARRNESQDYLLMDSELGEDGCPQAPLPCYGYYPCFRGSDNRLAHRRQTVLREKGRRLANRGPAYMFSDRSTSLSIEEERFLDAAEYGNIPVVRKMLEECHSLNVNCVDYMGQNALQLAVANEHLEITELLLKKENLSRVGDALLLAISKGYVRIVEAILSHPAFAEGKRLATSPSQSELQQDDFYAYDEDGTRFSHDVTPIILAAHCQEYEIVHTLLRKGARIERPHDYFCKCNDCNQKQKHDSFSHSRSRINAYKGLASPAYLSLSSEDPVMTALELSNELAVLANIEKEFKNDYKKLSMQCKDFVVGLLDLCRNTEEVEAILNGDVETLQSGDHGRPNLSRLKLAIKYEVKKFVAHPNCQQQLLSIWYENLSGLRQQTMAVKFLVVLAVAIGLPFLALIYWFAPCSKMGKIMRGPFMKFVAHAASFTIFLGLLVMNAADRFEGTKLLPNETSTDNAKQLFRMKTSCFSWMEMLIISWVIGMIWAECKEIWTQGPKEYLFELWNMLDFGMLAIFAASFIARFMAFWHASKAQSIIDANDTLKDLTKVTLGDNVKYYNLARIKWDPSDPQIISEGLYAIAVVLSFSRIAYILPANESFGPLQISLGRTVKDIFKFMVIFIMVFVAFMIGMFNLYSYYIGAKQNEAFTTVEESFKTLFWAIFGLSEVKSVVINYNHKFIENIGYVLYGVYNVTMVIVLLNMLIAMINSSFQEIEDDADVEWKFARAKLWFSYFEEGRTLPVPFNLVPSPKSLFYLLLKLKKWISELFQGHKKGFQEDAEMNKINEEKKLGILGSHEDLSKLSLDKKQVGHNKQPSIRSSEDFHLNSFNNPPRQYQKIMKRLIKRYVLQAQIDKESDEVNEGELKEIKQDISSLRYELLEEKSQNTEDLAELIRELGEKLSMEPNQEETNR
Assay: FLIPR calcium entry in TRPC6-expressing cells stimulated by hyperforin
Assay type: cell-based
Details: read-out: IC50, hyperforin-induced TRPC6-mediated calcium entry (Fig. 3)
# pIC50 is unitless: minus log10 of the molar concentration; print number only

Entry NCCCCCCNS(=O)(=O)c1cccc2ccccc12 ; pIC50 = 4.70

Entry NCCCCCCCCNS(=O)(=O)c1cccc2c(I)cccc12 ; pIC50 = 4.07

Entry NCCCCCCCCCCNS(=O)(=O)c1cccc2c(Cl)cccc12 ; pIC50 = 4.54

Entry O=S(=O)(c1cccc2c(Cl)cccc12)N1CCCNCC1 ; pIC50 = 4.44

Entry NCCCCCCNS(=O)(=O)c1ccc2c(Cl)cccc2c1 [W-7 isomer] ; pIC50 = 4.46

# credit: paper PMC3267170
